- targetSystem: UniProt:B8HNS6
- Sequence (B8HNS6 entry or part of it): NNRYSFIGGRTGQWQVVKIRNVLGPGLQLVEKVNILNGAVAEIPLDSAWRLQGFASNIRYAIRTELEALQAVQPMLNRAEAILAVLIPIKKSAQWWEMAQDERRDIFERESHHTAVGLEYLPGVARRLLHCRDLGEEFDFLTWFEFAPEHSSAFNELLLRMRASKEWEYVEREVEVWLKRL

# compound, targetSystem, Kd [mM]
data = [
    ("F [F^–, fluoride]", "UniProt:B8HNS6", 12.6),
    ("N#CS [SCN^–, thiocyanate]", "UniProt:B8HNS6", 0.074),
]

Origin of the recorded values: paper PMC5678291
